ActRIIa binding (relative to wild type = 1.0): recorded values
TARGET ENTITY: T1, ActRIIa receptor-Fc fusion (UniProt P27037 20-134, limits assumed)
T1 construct: BMP receptor-Fc fusion used at 5 ug/mL
T1 sequence (P27037 20-134 limits assumed): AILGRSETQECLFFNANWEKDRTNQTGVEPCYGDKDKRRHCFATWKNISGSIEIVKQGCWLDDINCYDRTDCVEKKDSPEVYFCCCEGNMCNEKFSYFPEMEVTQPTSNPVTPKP
TEST NAME: ELISA-like plate assay, captured BMP-7 from conditioned media, receptor-Fc detection

>>> result("BMP-7 variant K39N (ligand, In conditioned media; numbering on mature BMP-7) STGGKQRSQNRSKTPKNQEALRMASVAENSSSDQRQACNKHELYVSFRDLGWQDWIIAPEGYAAYYCEGECAFPLNSYMNATNHAIVQTLVHFINPETVPKPCCAPTQLNAISVLYFDDSSNVILKKYRNMVVRACGCH")
"1.08 relative to wild type"

// next entry
The binder BMP-7 variant Q53G (ligand, In conditioned media; numbering on mature BMP-7) STGGKQRSQNRSKTPKNQEALRMASVAENSSSDQRQACKKHELYVSFRDLGWGDWIIAPEGYAAYYCEGECAFPLNSYMNATNHAIVQTLVHFINPETVPKPCCAPTQLNAISVLYFDDSSNVILKKYRNMVVRACGCH showed ActRIIa binding (relative to wild type = 1.0) equal to 0.99 relative to wild type
